target under test: hBPGM (Homo sapiens, UniProt P07738)
method summary: BPGM synthase assay
Type: biochemical
cond: Table 6; read-out: huBPGM: synthase Enzyme IC50
quantity: pIC50
Scale explanation: pIC50 corresponds to minus log10 of a concentration expressed in moles per litre.

# annotated cases, reported pIC50 shown
                                   molecule  endpoint_value
0  Cc1nc(COC(C)C)sc1-c1cccc(-c2cc(F)c3nn[nH]c3c2F)n1            6.96
1  Cc1nc(CNC(=O)C(C)CN(C)C)sc1-c1cccc(-c2cc(F)c3nn[nH]c3c2F)n1 (stereo not drawn)            6.02
2  Cc1cnc(OCc2nc(C)c(-c3cccc(-c4cc(F)c5nn[nH]c5c4)n3)s2)nc1            7.40
3  Cc1nc(CO)sc1-c1csc(-c2cc(F)c3[nH]nnc3c2F)n1            6.42
4  Cc1nc(COc2ccccn2)sc1-c1csc(-c2cc(F)c(O)c(F)c2)n1            6.00

Any idea what pIC50 was measured for Cc1nc(COCC(C)(C)O)sc1-c1nc(-c2cc(F)c3nn[nH]c3c2)cs1 ?
7.09

Now consider Cc1nc(COC(=O)N(C)CCN(C)C)sc1-c1cccc(-c2cc(F)c(O)c(F)c2F)n1 and answer again.
5.89

====

# pIC50 per entry
target under test: hBPGM (Homo sapiens)
method summary: BPGM synthase assay
Type: biochemical
cond: Table 6; read-out: huBPGM: synthase Enzyme IC50
In plain terms, pIC50 is the concentration in mol/L turned into minus its base-10 logarithm.

Field: example entries. Status: answers known.
>>> print(df.to_string())
                                   compound  endpoint_value
0  Cc1nc(COCC(=O)N2CCC(O)C2)sc1-c1csc(-c2cc(F)c3[nH]nnc3c2F)n1 (stereo not shown)            5.82
1  Cc1nc(COc2cccnn2)sc1-c1nc(-c2cc(F)c(O)c(F)c2F)cs1            5.89

So what's the measured pIC50 for this one? Cc1nc(COc2ncccn2)sc1-c1cccc(-c2ccc3nnc(O)n3c2)n1
5.82

Proceed to COC(=O)NCc1nc(C)c(-c2cccc(-c3cc(F)c(O)c(F)c3F)n2)s1
6.09

====

Form field: log10 of EC50 (one value per entry).
target under test: human Bisphosphoglycerate mutase (hBPGM) (Homo sapiens)
Sequence (P07738 1-259): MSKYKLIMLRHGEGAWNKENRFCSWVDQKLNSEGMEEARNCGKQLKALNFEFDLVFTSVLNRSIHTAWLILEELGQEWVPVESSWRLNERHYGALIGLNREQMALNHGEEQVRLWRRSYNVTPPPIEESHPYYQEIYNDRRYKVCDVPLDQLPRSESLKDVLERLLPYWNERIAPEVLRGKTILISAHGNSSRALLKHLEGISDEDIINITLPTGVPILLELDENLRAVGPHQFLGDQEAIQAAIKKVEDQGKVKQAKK
method summary: BPGM phosphatase assay
Format: biochemical
cond: Table 6; read-out: huBPGM: phosphatase Enzyme EC50
The figures below represent log10 of EC50, where EC50 is stated in nM.

// worked examples, log10 of EC50 included
In [3]: df
Out[3]:
                                   molecule       quantity  endpoint_value
0  Cc1nc(COc2ccccn2)sc1-c1csc(-c2cc(F)c3[nH]nnc3c2)n1 [Example 100]  log10 of EC50            1.76
1  Cc1nc(COc2ccccn2)sc1-c1csc(-c2cc(F)c(O)c(F)c2)n1 [Example 192]  log10 of EC50            2.69
2  Cc1nc(COCC(=O)N2CCCC2)sc1-c1csc(-c2cc(F)c(O)c(F)c2F)n1 [Example 127]  log10 of EC50            2.58

// query log10 of EC50 value for entry Cc1nc(CNC(=O)c2cccnn2)sc1-c1csc(-c2cc(F)c(O)c(F)c2F)n1 [Example 186]
2.54

Also, Cc1nc(COC(=O)N(C)C)sc1-c1cccc(-c2cc(F)c3nn[nH]c3c2F)n1 [Example 125] please.
3.43

Field entry: Cc1cnc(OCc2nc(C)c(-c3cccc(-c4cc(F)c5nn[nH]c5c4F)n3)s2)nc1 [compound 8]
1.60

Please do the same for COC(=O)NCc1nc(C)c(-c2csc(-c3ccc(O)c(F)c3)n2)s1 [Example 203] as well.
3.56

Another molecule: Cc1nc(COc2ncccn2)sc1-c1cccc(-c2cc(F)c3[nH]nnc3c2)n1 [Example 141]
1.76

Note, next up: Cc1nc(CNC(=O)N2CC(O)C2)sc1-c1csc(-c2cc(F)c(O)c(F)c2F)n1 [Example 97]
3.84

Next molecule up: Cc1nc(COCC(=O)O)sc1-c1csc(-c2cc(F)c(O)c(F)c2F)n1 [Example 99]
3.89

Same question, COC(=O)NCc1nc(C)c(-c2csc(-c3cc(F)c(O)c(F)c3)n2)s1 [Example 191] this time
3.20

Now consider Cc1nc(CNC(=O)c2cccnn2)sc1-c1csc(-c2cc(F)c(O)c(F)c2)n1 [Example 201] .
2.26

Field entry: Cc1nc(CNC(=O)C(C)(C)C)sc1-c1csc(-c2cc3nn[nH]c3cc2F)n1 [Example 181]
2.90

What about this molecule? Cc1nc(COC(=O)N(C)C)sc1-c1cccc(-c2cc(F)c(O)c(F)c2F)n1 [Example 169]
2.52

Now the same for Cc1nc(CNC(=O)c2cccnn2)sc1-c1csc(-c2cc(F)c(O)c(F)c2)c1 [Example 194]
2.57

====

target under test: human Bisphosphoglycerate mutase (hBPGM) (Homo sapiens)
Sequence (P07738 1-259): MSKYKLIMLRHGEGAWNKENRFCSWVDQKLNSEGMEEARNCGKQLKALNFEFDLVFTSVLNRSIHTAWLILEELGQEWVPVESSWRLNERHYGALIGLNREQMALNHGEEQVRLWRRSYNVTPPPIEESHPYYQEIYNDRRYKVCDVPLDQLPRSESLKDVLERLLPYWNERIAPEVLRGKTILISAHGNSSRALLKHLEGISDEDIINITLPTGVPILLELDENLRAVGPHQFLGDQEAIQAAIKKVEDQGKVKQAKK
method summary: BPGM phosphatase assay
Format: biochemical
cond: Table 6; read-out: huBPGM: phosphatase Enzyme EC50
Each item that follows carries a reported log10 EC50.
On a log10 scale: recorded EC50, unit µM.

These solved cases illustrate the format of a correct answer.
>>> print(df.to_string())
                                   molecule                         target_under_test    quantity  endpoint_value
0  Cc1nc(CNc2ncccn2)sc1-c1cccc(-c2cc(F)c3nn[nH]c3c2)n1 [Example 155]  human Bisphosphoglycerate mutase (hBPGM) (Homo sapiens)  log10 EC50           -1.40
1  COC(=O)NCc1nc(C)c(-c2csc(-c3ccc(C(=O)NS(C)(=O)=O)cc3)n2)s1 [Example 208]  human Bisphosphoglycerate mutase (hBPGM) (Homo sapiens)  log10 EC50            1.20
2  COC(=O)NCc1nc(C)c(-c2csc(-c3ccc4[nH]nnc4c3F)n2)s1 [Example 166]  human Bisphosphoglycerate mutase (hBPGM) (Homo sapiens)  log10 EC50           -0.77
3  Cc1nc(COc2cccnn2)sc1-c1csc(-c2cc(F)c3[nH]nnc3c2)n1 [compound 7]  human Bisphosphoglycerate mutase (hBPGM) (Homo sapiens)  log10 EC50           -1.26

Which log10 EC50 reading was recorded for the molecule Cc1nc(COc2ccccn2)sc1-c1csc(-c2cc(F)c(O)c(F)c2F)c1 [Example 102] ?
-1.35

====

target under test: hBPGM (Homo sapiens, UniProt P07738)
method summary: BPGM synthase assay
Format: biochemical
cond: Table 6; read-out: huBPGM: synthase Enzyme IC50
Reported pIC50 by item:
# pIC50: negative log10 of molar concentration; output just the value

>>> df
                           structure_string  endpoint_value
0  Cc1ccnc(OCc2nc(C)c(-c3cccc(-c4cc(F)c5nn[nH]c5c4)n3)s2)n1            7.09
1  Cc1nc(COc2ncccn2)sc1-c1csc(-c2cc(F)c3[nH]nnc3c2)c1            6.60
2  Cc1nc(COC(=O)N(C)C)sc1-c1nc(-c2cc(F)c3nn[nH]c3c2F)cs1            7.60
3  Cc1nc(COc2ccccn2)sc1-c1csc(-c2cc(F)c(F)c(O)c2F)n1            6.66
4  Cc1nc(COC(=O)N(C)C)sc1-c1ccn(-c2cc(F)c3[nH]nnc3c2F)n1            6.89

Need pIC50 of Cc1nc(COCC(=O)N(C)C)sc1-c1nc(-c2cc(F)c3nn[nH]c3c2F)cs1 , thanks.
7.51

Repeat with Cc1nc(COc2ncccn2)sc1-c1nc(-c2cc(O)c(C#N)c(F)c2)cs1
6.52

How about this compound: Cc1nc(COC(=O)N(C)C)sc1-c1csc(-c2cc(F)c3[nH]nnc3c2)n1
6.80
